system: T47D; test: Cytotoxicity against Homo sapiens (human) T47D cells after 48 hr by sulforhodamine B assay; assay type: functional
READOUT TYPE: LC50

CHEMICAL SMILES	ASSAY VALUE
ClCc1ccccc1Cn1cnc2nc(Cl)nc(Cl)c21	> 100 µM
ClCc1cccc(Cn2cnc3c(Cl)ncnc32)c1	> 100 µM
ClCc1ccccc1Cn1cnc2c(Cl)nc(Cl)nc21	> 100 µM
ClCc1cccc(Cn2cnc3c(Cl)nc(Cl)nc32)c1	> 100 µM
Nc1nc(Cl)c2ncn(Cc3ccccc3CCl)c2n1	> 100 µM
ClCc1ccc(Cn2cnc3nc(Cl)nc(Cl)c32)cc1	> 100 µM
ClCc1ccc(Cn2cnc3ncnc(Cl)c32)cc1	6.3 µM
Nc1nc(Cl)c2ncn(Cc3ccc(CCl)cc3)c2n1	> 100 µM
ClCc1cccc(Cn2cnc3nc(Cl)nc(Cl)c32)c1	> 100 µM
ClCc1ccccc1Cn1cnc2c(Cl)ncnc21	> 100 µM
ClCc1ccc(Cn2cnc3c(Cl)nc(Cl)nc32)cc1	> 100 µM
Nc1nc(Cl)c2ncn(Cc3cccc(CCl)c3)c2n1	> 100 µM
ClCc1ccccc1Cn1cnc2ncnc(Cl)c21	4.26 µM
ClCc1cccc(Cn2cnc3ncnc(Cl)c32)c1	2.88 µM

###

test system: MDA-MB-435; assay: Cytotoxicity against Homo sapiens (human) MDA-MB-435 cells after 48 hr by sulforhodamine B assay; type: functional; details: MDA-MB-435, 48 h

CHEMICAL SMILES	TARGET DESC	GI50 (nM)
ClCc1ccc(Cn2cnc3c(Cl)ncnc32)cc1	MDA-MB-435	1620
ClCc1cccc(Cn2cnc3c(Cl)ncnc32)c1	MDA-MB-435	1690
ClCc1ccc(Cn2cnc3nc(Cl)nc(Cl)c32)cc1	MDA-MB-435	1620
ClCc1ccccc1Cn1cnc2c(Cl)nc(Cl)nc21	MDA-MB-435	1620
ClCc1ccc(Cn2cnc3ncnc(Cl)c32)cc1	MDA-MB-435	5880
ClCc1ccc(Cn2cnc3c(Cl)nc(Cl)nc32)cc1	MDA-MB-435	12600
ClCc1ccccc1Cn1cnc2nc(Cl)nc(Cl)c21	MDA-MB-435	16600

###

tested on: CAKI-1; assay: Cytotoxicity against Homo sapiens (human) Caki1 cells after 48 hr by sulforhodamine B assay; assay type: functional; conditions: CAKI-1, 48 h

CHEMICAL SMILES	TARGET DESC	TGI [µM]
ClCc1cccc(Cn2cnc3nc(Cl)nc(Cl)c32)c1	CAKI-1	3.46
Nc1nc(Cl)c2ncn(Cc3cccc(CCl)c3)c2n1	CAKI-1	1.51
ClCc1cccc(Cn2cnc3c(Cl)nc(Cl)nc32)c1	CAKI-1	5.88
ClCc1ccccc1Cn1cnc2nc(Cl)nc(Cl)c21	CAKI-1	34.7
ClCc1cccc(Cn2cnc3c(Cl)ncnc32)c1	CAKI-1	2.95
Nc1nc(Cl)c2ncn(Cc3ccc(CCl)cc3)c2n1	CAKI-1	9.77
ClCc1ccc(Cn2cnc3c(Cl)nc(Cl)nc32)cc1	CAKI-1	21.4
ClCc1ccc(Cn2cnc3nc(Cl)nc(Cl)c32)cc1	CAKI-1	2.75
ClCc1ccc(Cn2cnc3c(Cl)ncnc32)cc1	CAKI-1	0.64
Nc1nc(Cl)c2ncn(Cc3ccccc3CCl)c2n1	CAKI-1	20.4
ClCc1ccc(Cn2cnc3ncnc(Cl)c32)cc1	CAKI-1	4.46
ClCc1cccc(Cn2cnc3ncnc(Cl)c32)c1	CAKI-1	4.07
ClCc1ccccc1Cn1cnc2ncnc(Cl)c21	CAKI-1	4.16
ClCc1ccccc1Cn1cnc2c(Cl)nc(Cl)nc21	CAKI-1	0.89
ClCc1ccccc1Cn1cnc2c(Cl)ncnc21	CAKI-1	4.17
